The reported numbers originate from PubChem BioAssay AID1851.

Biological target: Cytochrome P450 3A4 (Homo sapiens)
Test: Cytochrome panel assay with activity outcomes
Conditions: recombinant CYP, pro-luciferin dealkylation, luminescence, p450-cyp3a4; series mostly up to 57.1 µM
The campaign covered roughly 16,000 compounds. About 5,100 (32%) were called active. Not shown: some 25% with an inconclusive outcome. Calls come from the whole dose curve; as a rule, active = well fitted curve in the direction sought with a large enough effect; inconclusive = small, poorly fitted or top-dose-only effect, or effect the other way; inactive = no such curve, though single readings can be large or run the other way. The list shows a part of the results.
Possible outcomes: 1 (yes) for active, 0 (no) for inactive

- compound: "Cc1cc2cccc(C)c2nc1SCC(=O)N(C)c1nc(-c2ccccc2)cs1"
  test_system: "Cytochrome P450 3A4 (Homo sapiens)"
  label_class: "0 (no)"
- compound: "COc1cccc(-c2cc(=O)c3ccccc3o2)c1N"
  test_system: "Cytochrome P450 3A4 (Homo sapiens)"
  label_class: "1 (yes)"
- compound: "Cc1nc2cc(NC(=O)CSc3nc4c(C)cccc4cc3C#N)ccc2s1"
  test_system: "Cytochrome P450 3A4 (Homo sapiens)"
  label_class: "1 (yes)"
- compound: "COc1ccccc1-c1c(C)oc2c(CN3CCN(CCO)CC3)c(O)ccc2c1=O"
  test_system: "Cytochrome P450 3A4 (Homo sapiens)"
  label_class: "0 (no)"
- compound: "COc1ccc2c(C)cc(N3CCOCC3)nc2c1"
  test_system: "Cytochrome P450 3A4 (Homo sapiens)"
  label_class: "0 (no)"
- compound: "CCOC(OCC)P(=O)(O)CCCNCc1ccc(Cl)c(Cl)c1"
  test_system: "Cytochrome P450 3A4 (Homo sapiens)"
  label_class: "0 (no)"
- compound: "CC(=O)Oc1ccccc1C(=O)Oc1ccccc1C(=O)O"
  test_system: "Cytochrome P450 3A4 (Homo sapiens)"
  label_class: "0 (no)"
- compound: "CCC1CCCCN1Cc1cc(OC)c(O)c([N+](=O)[O-])c1 (stereo unspecified)"
  test_system: "Cytochrome P450 3A4 (Homo sapiens)"
  label_class: "0 (no)"
- compound: "CN(CCc1ccc(Cl)c(Cl)c1)CCN1CCCCCC1"
  test_system: "Cytochrome P450 3A4 (Homo sapiens)"
  label_class: "1 (yes)"
- compound: "CCCCNC(=O)CCC(=O)Nc1ccc2nc(N3CCOCC3)cc(C)c2c1"
  test_system: "Cytochrome P450 3A4 (Homo sapiens)"
  label_class: "1 (yes)"
- compound: "COc1ccccc1CNc1cc(-c2ccc(C(=O)N(C)C)cc2)ncn1"
  test_system: "Cytochrome P450 3A4 (Homo sapiens)"
  label_class: "1 (yes)"

* * *

Target: Cytochrome P450 3A4 (Homo sapiens) (UniProt P08684)
Sequence (P08684 whole entry, looked up): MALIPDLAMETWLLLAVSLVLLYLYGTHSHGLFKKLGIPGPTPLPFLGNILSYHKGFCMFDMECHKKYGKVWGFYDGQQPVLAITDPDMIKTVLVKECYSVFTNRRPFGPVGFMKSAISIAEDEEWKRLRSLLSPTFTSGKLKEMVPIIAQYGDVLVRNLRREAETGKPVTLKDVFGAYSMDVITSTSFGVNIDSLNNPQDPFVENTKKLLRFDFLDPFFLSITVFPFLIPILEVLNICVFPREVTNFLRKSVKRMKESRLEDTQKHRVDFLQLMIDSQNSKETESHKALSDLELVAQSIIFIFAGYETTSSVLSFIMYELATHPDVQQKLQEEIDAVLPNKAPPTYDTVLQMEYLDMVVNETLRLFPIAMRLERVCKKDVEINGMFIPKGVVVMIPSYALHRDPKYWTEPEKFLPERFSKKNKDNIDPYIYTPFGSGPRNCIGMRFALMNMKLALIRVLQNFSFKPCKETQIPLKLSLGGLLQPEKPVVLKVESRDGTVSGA
Test: Cytochrome panel assay with activity outcomes
Settings: recombinant CYP, pro-luciferin dealkylation, luminescence, p450-cyp3a4; series mostly up to 57.1 µM
The whole screen tested about 16,000 compounds, of which about 5,100 (32%) were called active. Roughly 25% stayed inconclusive and do not appear here. Calls follow the shape of the dose curve; as a rule, active = well fitted curve in the direction sought with a large enough effect; inconclusive = small, poorly fitted or top-dose-only effect, or effect the other way; inactive = no such curve, though single readings can be large or run the other way. This is one part of the list.
Possible outcomes: class 1 (active), class 0 (inactive)

- query_smiles: "CCOc1ccc(NC(=O)CN2CCN(S(=O)(=O)c3ccc(Cl)cc3)CC2)cc1"
  test_system: "Cytochrome P450 3A4 (Homo sapiens) (UniProt P08684)"
  label_class: "class 1"
- query_smiles: "COC(=O)C1=C(NC(=O)c2ccc(C)c(C)c2)CCS1"
  test_system: "Cytochrome P450 3A4 (Homo sapiens) (UniProt P08684)"
  label_class: "class 1"
- query_smiles: "CN(C)CCCNC(=O)c1cc2c3ccccc3n(C)c2s1"
  test_system: "Cytochrome P450 3A4 (Homo sapiens) (UniProt P08684)"
  label_class: "class 0"
- query_smiles: "COc1ccc(NC(=O)CC#N)cc1OC"
  test_system: "Cytochrome P450 3A4 (Homo sapiens) (UniProt P08684)"
  label_class: "class 0"
- query_smiles: "CN(C)CCCn1cc(C2=C(c3c[nH]c4ccccc34)C(=O)NC2=O)c2ccccc21"
  test_system: "Cytochrome P450 3A4 (Homo sapiens) (UniProt P08684)"
  label_class: "class 1"
- query_smiles: "Cc1cc(C)cc(OCC(=O)Nc2ccc3c4c(cccc24)CC3)c1"
  test_system: "Cytochrome P450 3A4 (Homo sapiens) (UniProt P08684)"
  label_class: "class 0"
